Among all 44,000 sequences or so, about 2,900 (6.6%) were called active. Not all results are given here. Results with a measured potency or affinity are listed apart.
NCI/ADR-RES measurements of GI50, listed per entry.
Supply the numeric figure in µM, leaving out any unit text.

Below, 4 substances whose answers are already recorded.
Data request: Please look at this substance and report its GI50: [Bis(aminomethyl)tetramethylenesilane]tetrachloropaltinum(IV), CHEMBL2146189
Data returned: 5.69

Data request: Complete the entry with GI50 for [Bis(aminomethyl)dimethylsilane]tetrachloroplatinum(IV), CHEMBL2146190
Data returned: 15

Data request: Dear colleague, please send me the reported GI50 for [Bis(aminomethyl)tetramethylenesilane]dichloropaltinum(II), CHEMBL2146205 when you can.
Data returned: 5.22

Data request: Identify measured GI50 associated with [Bis(aminomethyl)pentamethylenesilane]tetrachloropaltinum(IV), CHEMBL2146204
Data returned: 1.91

// below: GI50 requested for another substance
Data request: Determine from records and report GI50 for CISPLATIN, CHEMBL11359
Data returned: 4.93
